# TEST_SYSTEM: Glutamate NMDA receptor; Grin1/Grin2b (Rattus norvegicus, UniProt P35439+Q00960)
# Sequence (Q00960 whole entry, looked up, other chains not shown): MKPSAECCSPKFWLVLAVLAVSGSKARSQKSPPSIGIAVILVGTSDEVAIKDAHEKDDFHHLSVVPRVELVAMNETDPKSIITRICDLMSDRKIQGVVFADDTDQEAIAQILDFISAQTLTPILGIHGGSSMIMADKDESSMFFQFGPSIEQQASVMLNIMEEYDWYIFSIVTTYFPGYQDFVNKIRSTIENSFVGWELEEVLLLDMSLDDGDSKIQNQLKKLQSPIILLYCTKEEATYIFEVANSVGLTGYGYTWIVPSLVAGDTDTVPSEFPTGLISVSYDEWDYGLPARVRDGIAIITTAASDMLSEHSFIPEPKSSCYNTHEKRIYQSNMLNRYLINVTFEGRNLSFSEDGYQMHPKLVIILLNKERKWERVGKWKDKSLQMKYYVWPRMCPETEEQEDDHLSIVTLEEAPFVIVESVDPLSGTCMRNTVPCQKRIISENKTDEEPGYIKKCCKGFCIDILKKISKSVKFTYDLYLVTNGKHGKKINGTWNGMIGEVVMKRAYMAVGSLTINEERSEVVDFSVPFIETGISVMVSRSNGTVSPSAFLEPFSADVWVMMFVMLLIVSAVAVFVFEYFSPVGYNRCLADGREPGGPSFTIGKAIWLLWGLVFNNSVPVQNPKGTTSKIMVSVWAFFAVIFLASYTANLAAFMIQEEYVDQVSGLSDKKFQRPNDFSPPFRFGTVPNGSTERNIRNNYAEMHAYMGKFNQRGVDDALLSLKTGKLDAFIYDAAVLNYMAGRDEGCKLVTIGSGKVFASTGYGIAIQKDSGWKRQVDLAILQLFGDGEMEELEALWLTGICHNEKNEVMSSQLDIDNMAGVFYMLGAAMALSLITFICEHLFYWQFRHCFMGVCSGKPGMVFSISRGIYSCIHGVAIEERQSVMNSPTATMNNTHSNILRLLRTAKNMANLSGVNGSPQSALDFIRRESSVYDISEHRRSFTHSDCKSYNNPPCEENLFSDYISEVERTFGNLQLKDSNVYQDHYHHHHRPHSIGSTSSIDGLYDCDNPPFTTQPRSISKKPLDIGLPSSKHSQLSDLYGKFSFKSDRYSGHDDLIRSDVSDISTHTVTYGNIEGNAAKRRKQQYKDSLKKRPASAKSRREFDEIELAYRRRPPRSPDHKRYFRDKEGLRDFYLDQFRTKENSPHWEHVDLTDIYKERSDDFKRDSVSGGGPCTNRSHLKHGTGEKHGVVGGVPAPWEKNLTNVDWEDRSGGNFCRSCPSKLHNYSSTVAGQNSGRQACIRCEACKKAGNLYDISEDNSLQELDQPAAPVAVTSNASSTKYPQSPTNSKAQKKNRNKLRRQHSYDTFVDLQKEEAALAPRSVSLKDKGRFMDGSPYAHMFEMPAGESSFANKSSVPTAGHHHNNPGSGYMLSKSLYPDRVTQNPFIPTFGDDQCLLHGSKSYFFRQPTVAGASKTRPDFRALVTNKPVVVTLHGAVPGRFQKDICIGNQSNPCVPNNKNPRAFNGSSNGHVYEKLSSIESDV
# TEST_DETAILS: In vitro inhibition of NMDA responses at NR1A/2B receptor expressed in Xenopus oocytes
ASSAY_METRIC: IC50 (µM)

- SMILES_STRUCTURE: "Oc1nc2ccccc2n1CCCCN1CCC(Cc2ccccc2)CC1"
  ASSAY_METRIC: "IC50"
  TEST_VALUE: 3.4
- SMILES_STRUCTURE: "O=C1CNC(=O)N1CCCCN1CCC(Cc2ccccc2)CC1"
  ASSAY_METRIC: "IC50"
  TEST_VALUE: 10
- SMILES_STRUCTURE: "O=c1[nH]c2ccccc2n1CCCN1CCC(Cc2ccccc2)CC1"
  ASSAY_METRIC: "IC50"
  TEST_VALUE: 0.095
- SMILES_STRUCTURE: "O=c1[nH]c2ccccc2n1CCCCCN1CCC(Cc2ccccc2)CC1"
  ASSAY_METRIC: "IC50"
  TEST_VALUE: 11
- SMILES_STRUCTURE: "O=c1[nH]c2ccccc2n1CCCN1CCC(Cc2ccc(F)cc2)CC1"
  ASSAY_METRIC: "IC50"
  TEST_VALUE: 0.11
- SMILES_STRUCTURE: "O=C1CNC(=O)N1CCCN1CCC(Cc2ccccc2)CC1"
  ASSAY_METRIC: "IC50"
  TEST_VALUE: 27
- SMILES_STRUCTURE: "O=C1CNC(=O)N1CCCCCN1CCC(Cc2ccccc2)CC1"
  ASSAY_METRIC: "IC50"
  TEST_VALUE: 49

Data provenance is ChEMBL document CHEMBL1133098.
